Measured values drawn from patent US20080269251A1 for this set.

TARGET_OR_TEST_SYSTEM: human adrenergic-α2C receptor (Homo sapiens)
Construct: expressed in transfected cells; host or cells: CHO cells, stably transfected; membrane preparation
Sequence (P18825 1-462): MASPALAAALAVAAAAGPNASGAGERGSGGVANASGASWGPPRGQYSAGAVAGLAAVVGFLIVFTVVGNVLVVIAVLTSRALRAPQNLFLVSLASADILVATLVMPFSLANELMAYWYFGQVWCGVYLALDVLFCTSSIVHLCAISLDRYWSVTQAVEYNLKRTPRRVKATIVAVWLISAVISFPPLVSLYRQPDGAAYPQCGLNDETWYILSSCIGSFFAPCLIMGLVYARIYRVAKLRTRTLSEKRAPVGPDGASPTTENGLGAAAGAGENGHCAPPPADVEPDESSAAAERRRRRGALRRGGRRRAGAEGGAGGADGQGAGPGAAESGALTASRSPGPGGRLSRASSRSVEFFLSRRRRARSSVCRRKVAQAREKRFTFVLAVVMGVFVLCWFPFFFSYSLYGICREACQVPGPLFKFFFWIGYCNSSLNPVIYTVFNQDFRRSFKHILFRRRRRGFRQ
ASSAY_TEXT: Radioligand binding experiment for hα2C-adrenoceptor ([3H]raulwolscine)
CONDITION: [3H]raulwolscine 1 nM, 60 minutes at 25° C.; read-out: h-α2C pIC50 (converted)
READOUT_KIND: IC50 (nM)

Example results:
In [3]: df
Out[3]:
                                   compound  meas_value
0  Cc1cc(CNCc2ccc(-n3ccnc(NC4CCN(Cc5ccc6ccccc6c5)CC4)c3=O)cc2F)no1 [1-87]        12.6
1  CN(C)CCNC(=O)NCc1ccc(-n2ccnc(NC3CCN(Cc4ccc5ccccc5c4)CC3)c2=O)cc1 [1-44]        12.6
2  O=c1c(NC2CCN(Cc3ccc4ccccc4c3)CC2)nccn1-c1cnc2ccccc2c1 [6-09]         126
3  O=c1c(NC2CCN(Cc3ccc4ccccc4c3)CC2)nccn1-c1ccc(COCC2CCCO2)cc1 (centres unmarked) [3-14]        3.98
4  CCCn1ccnc(NC2CCN(Cc3ccc4ccccc4c3)CC2)c1=O [5-02]        63.1

a. O=C1c2ccccc2C(=O)N1CC#CCn1ccnc(NC2CCN(Cc3ccc4ncccc4c3)CC2)c1=O [9-30]
b. O=c1c(NC2CCN(Cc3ccc4ncccc4c3)CC2)nccn1CCCOCc1ccccc1 [9-06]
In: Dear colleague, could you let me know whether a or b has the lower recorded IC50? Thanks. To answer, give the label that identifies your chosen option.
Out: a

P. O=c1c(NC2CCN(Cc3ccc4ccccc4c3)CC2)nccn1CCCNCc1ccccc1 [1-67]
Q. CN(C)C(=O)CCC(=O)NCc1ccc(-n2ccnc(NC3CCN(Cc4ccc5ccccc5c4)CC3)c2=O)cc1 [1-59]
R. CCOC(=O)CCCCn1ccnc(NC2CCN(Cc3cnc4ccccc4c3)CC2)c1=O [9-21]
S. O=C1c2ccccc2C(=O)N1CCCn1ccnc(N2CCN(Cc3ccc4ccccc4c3)CC2)c1=O [9-01]
T. O=C1c2ccccc2C(=O)N1C/C=C/Cn1ccnc(NC2CCN(Cc3ccc4ccccc4c3)CC2)c1=O [2-18]
In: Highest IC50 first, then in falling order down to the smallest. Record the ranking as a list of labels in the requested order.
Out: R, S, Q, P, T
(R: 200 nM, S: 79.4 nM, Q: 39.8 nM, P: 25.1 nM, T: 3.98 nM)
